System: UACC-257 melanoma
Experiment: NCI-60 one-dose screen, 48 h (100 = growth as untreated, 0 = no growth, -100 = all killed)
Conditions: 10 µM unless noted
Compounds without any hit were thinned out: in the full panel of roughly 83,000, 20% have a hit. Activity calls are given as the source filed them. The calls were made as follows: active = growth percent below 10; inactive = the rest.
Entries and their measured growth follow.

// below: answered compounds
What measured growth goes with "CCOC(=O)[C@@H]1CCCN(S(=O)(=O)c2ccc(S(=O)(=O)N(CC)CC)c(F)c2)C1" ?
60.6% (inactive)

And the next one, "COc1cc(-c2csc(NC(=O)c3cc(F)cc(C(F)(F)F)c3)n2)cc(OC)c1OC" ?
58.6% (inactive)

New cases:
What measured growth goes with "CNC(=O)c1cncc(Cn2nc(C)c(NC(=O)c3ccc(COc4ccc(C(F)(F)F)cc4C)cc3)c2C)c1" ?
18.4% (inactive)

And the next one, "N/C(=N\C(N)=N\c1nc2ccccc2s1)c1cnccn1" ?
35.5% (inactive)

And the next one, "COc1ccc(/C=C(\C#N)n2nc3cccc(F)c3n2)cc1" ?
95.5% (inactive)

And the next one, "COc1cc2cc(CN3CCN(c4nccc(-c5ccc6ccccc6c5)n4)CC3)c(=O)[nH]c2cc1OC" ?
77% (inactive)

And the next one, "CC1(C)NCCC[C@]2(C)[C@H]3CC(=O)[C@H]4[C@@H]5C[C@](C)(CO)CC[C@]5(C)CC[C@@]4(C)[C@]3(C)CC[C@@H]12" ?
114% (inactive)

And the next one, "COc1ccc(C(=O)Cn2c(C(=O)c3ccccc3)nc3ccccc32)cc1" ?
54.3% (inactive)

And the next one, "O=C1C=CC(=O)N1c1cccc(Cl)c1" ?
97.1% (inactive)

And the next one, "Cc1cccc(-c2cn3ccnc3c(-c3ccc4ncn(Cc5ccccc5)c4c3)n2)c1" ?
120% (inactive)

And the next one, "O=C(Nc1ccccc1)Nc1ccc2cc3ccc(NC(=O)Nc4ccccc4)cc3nc2c1" ?
104% (inactive)

And the next one, O=[N+]([O-])CC(c1ccccc1)c1c[nH]c2ccccc12 (stereo not drawn) ?
55.8% (inactive)

And the next one, "CCOC(=O)[C@@H](C)C[C@H](Cc1ccccc1)NC(=O)c1csc([C@@H](C[C@H](C(C)C)N(C)C(=O)[C@@H](NC(=O)[C@H]2C[C@H](O[Si](C)(C)C(C)(C)C)CCN2C)C(C)C)OC(C)=O)n1" ?
21.3% [9.25 µM] (inactive)

---

System: NCI-H460 lung
Assay: NCI-60 one-dose screen, 48 h
Conditions: 10 µM unless noted
The panel holds about 83,000 compounds, 20% with a hit somewhere; the sample as a whole holds those more often. Calls of active or inactive are those of the source. Rule for the calls: active = growth percent below 10; inactive = the rest.
Please answer using one outcome listed in Y = active, N = inactive

Please indicate how the test categorized Cc1ccc(NC(C(=O)c2ccccc2)c2ccccc2)cc1 (configuration not stated) .
N

New cases:
Please indicate how the test categorized "C=C1C(=O)O[C@H]2[C@H]1CC/C(CNC(=O)/C=C/c1cccc(OC)c1)=C\CC[C@@]1(C)O[C@@H]21" .
N

And the next one, "c1ccc2c(-c3nccs3)c[nH]c2c1" ?
N

And the next one, "C[C@@H](Nc1ncnc2ccc(-c3cnc(N)nc3)cc12)c1ccc(F)cc1" ?
N

And the next one, "CCCOc1ccc(/C=N/Nc2cc(C)nc3ccc(Br)cc23)cc1" ?
N

And the next one, "COc1cc2c(cc1OC)C(=O)/C(=C/c1cc(C)c(O)c(C)c1)S2" ?
N

And the next one, CC(=O)O[C@@H]1C2CCC3C(CC[C@@]4(C)C3CC[C@@H]4C(C)N(C)C)[C@@]2(C)CC[C@@H]1NC(=O)C=C(C)C (some centres not stated) ?
Y

And the next one, "COc1cc2oc(-c3cccc(C(=O)Nc4ccc5c(c4)OCO5)c3)cc(=O)c2c(O)c1OC" ?
N
